system: 454973-116-R2-J3-PDC complex spheroid viability; assay: Anticancer human tumor 454973-116-R2-J3-PDC patient-derived pancreatic carcinoma cell line growth inhibition [POLQ]; conditions: second compound 0.1 µM; first compound 3.16 µM; hits give low values
Binary label based on viability, T/C with cut-off 20%: below gives true (1), not below gives false (0).

[
  {
    "Molecule": "Nc1ccn(C2OC(CO)C(O)C2(F)F)c(=O)n1 (stereo unspecified) + Cc1cccc(N(C)C(=O)C2C(O)CCN2c2nc(C)cc(C(F)(F)F)c2C#N)c1",
    "Assigned Label": "true (1)"
  },
  {
    "Molecule": "C=CC(=O)N1CCN(c2nc(=O)n(-c3c(C)ccnc3C(C)C)c3nc(-c4c(O)cccc4F)c(F)cc23)C(C)C1 (stereo unspecified) + Cc1cccc(N(C)C(=O)C2C(O)CCN2c2nc(C)cc(C(F)(F)F)c2C#N)c1",
    "Assigned Label": "false (0)"
  },
  {
    "Molecule": "COc1cc2cc(C(=O)CCC(=O)O)sc2cc1OC + COC1C(OC(N)=O)C(O)C(Oc2ccc3c(O)c(NC(=O)c4ccc(O)c(CC=C(C)C)c4)c(=O)oc3c2C)OC1(C)C",
    "Assigned Label": "false (0)"
  },
  {
    "Molecule": "CC1COCCN1c1cc(-c2ccnn2C)c2ccnc(-c3ccn[nH]3)c2n1 (stereo unspecified) + Cc1cccc(N(C)C(=O)C2C(O)CCN2c2nc(C)cc(C(F)(F)F)c2C#N)c1",
    "Assigned Label": "false (0)"
  },
  {
    "Molecule": "COc1cccc2c1C(=O)c1c(O)c3c(c(O)c1C2=O)CC(O)(C(=O)CO)CC3OC1CC(N)C(O)C(C)O1 (stereo unspecified) + Cc1cccc(N(C)C(=O)C2C(O)CCN2c2nc(C)cc(C(F)(F)F)c2C#N)c1",
    "Assigned Label": "true (1)"
  },
  {
    "Molecule": "O=C(c1cc(Cc2n[nH]c(=O)c3ccccc23)ccc1F)N1CCN(C(=O)C2CC2)CC1 + Cc1cccc(N(C)C(=O)C2C(O)CCN2c2nc(C)cc(C(F)(F)F)c2C#N)c1",
    "Assigned Label": "false (0)"
  }
]

###

test system: 454973-116-R2-J3-PDC complex spheroid viability; assay: Anticancer human tumor 454973-116-R2-J3-PDC cell line growth inhibition [POLQ]; conditions: second compound 0.0316 µM; first compound 1 µM; hits give low values;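 further: spheroids exposed to drugs for seven days before measurement; percent viability relative to DMSO vehicle control wells taken as 100%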
Endpoint Label: viability, T/C

[
  {
    "Compound": "C#Cc1c(F)ccc2cc(O)cc(-c3ncc4c(N5CC6CCC(C5)N6)nc(OCC56CCCN5CC(F)C6)nc4c3F)c12 (stereo not given) + COC1C(OC(N)=O)C(O)C(Oc2ccc3c(O)c(NC(=O)c4ccc(O)c(CC=C(C)C)c4)c(=O)oc3c2C)OC1(C)C",
    "Target": "454973-116-R2-J3-PDC complex spheroid viability",
    "Endpoint Label": "viability, T/C",
    "Reported Value": "31.8%"
  },
  {
    "Compound": "C#Cc1c(F)ccc2cc(O)cc(-c3ncc4c(N5CC6CCC(C5)N6)nc(OCC56CCCN5CC(F)C6)nc4c3F)c12 (stereo not given) + Cc1cccc(N(C)C(=O)C2C(O)CCN2c2nc(C)cc(C(F)(F)F)c2C#N)c1",
    "Target": "454973-116-R2-J3-PDC complex spheroid viability",
    "Endpoint Label": "viability, T/C",
    "Reported Value": "25.6%"
  },
  {
    "Compound": "COc1cccc2c1C(=O)c1c(O)c3c(c(O)c1C2=O)CC(O)(C(=O)CO)CC3OC1CC(N)C(O)C(C)O1 (stereo not given) + Cc1cccc(N(C)C(=O)C2C(O)CCN2c2nc(C)cc(C(F)(F)F)c2C#N)c1",
    "Target": "454973-116-R2-J3-PDC complex spheroid viability",
    "Endpoint Label": "viability, T/C",
    "Reported Value": "10.9%"
  },
  {
    "Compound": "O=C(Nc1ccc(O)c(NS(=O)(=O)c2ccc(F)cc2)c1)c1ccc(-c2ccccc2)cc1 + Cc1cccc(N(C)C(=O)C2C(O)CCN2c2nc(C)cc(C(F)(F)F)c2C#N)c1",
    "Target": "454973-116-R2-J3-PDC complex spheroid viability",
    "Endpoint Label": "viability, T/C",
    "Reported Value": "100%"
  },
  {
    "Compound": "CC1COCCN1c1cc(C2(O)CC3CCC(C2)O3)c2cnn(-c3ccn[nH]3)c2n1 (stereo not given) + COC1C(OC(N)=O)C(O)C(Oc2ccc3c(O)c(NC(=O)c4ccc(O)c(CC=C(C)C)c4)c(=O)oc3c2C)OC1(C)C",
    "Target": "454973-116-R2-J3-PDC complex spheroid viability",
    "Endpoint Label": "viability, T/C",
    "Reported Value": "22.1%"
  }
]

###

The following molecules are listed with their measured viability, T/C values.
tested on: 454973-116-R2-J3-PDC complex spheroid viability; test: Anticancer human tumor 454973-116-R2-J3-PDC cell line growth inhibition [POLQ]; settings: second compound 10 µM; first compound 0.1 µM; hits give low values;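 further: spheroids exposed to drugs for seven days before measurement; percent viability relative to DMSO vehicle control wells taken as 100%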
Endpoint Label: viability, T/C (%)

[
  {
    "Molecule": "CCc1cc2c(N3CCc4c(cc(Cn5ccnc5)cc4-c4cn(C)nc4C(F)(F)F)C3=O)cc(C)nc2c(OC)n1 + COC1C(OC(N)=O)C(O)C(Oc2ccc3c(O)c(NC(=O)c4ccc(O)c(CC=C(C)C)c4)c(=O)oc3c2C)OC1(C)C",
    "Target": "454973-116-R2-J3-PDC complex spheroid viability",
    "Endpoint Label": "viability, T/C",
    "Reported Value": 90.5
  },
  {
    "Molecule": "CCCS(=O)(=O)Nc1ccc(F)c(C(=O)c2c[nH]c3ncc(-c4ccc(Cl)cc4)cc23)c1F + COC1C(OC(N)=O)C(O)C(Oc2ccc3c(O)c(NC(=O)c4ccc(O)c(CC=C(C)C)c4)c(=O)oc3c2C)OC1(C)C",
    "Target": "454973-116-R2-J3-PDC complex spheroid viability",
    "Endpoint Label": "viability, T/C",
    "Reported Value": 104
  },
  {
    "Molecule": "O=C(c1cc(Cc2n[nH]c(=O)c3ccccc23)ccc1F)N1CCN(C(=O)C2CC2)CC1 + Nc1ccc(C#CCN(C(=O)Cc2ncc(C(F)(F)F)cc2C(F)(F)F)c2ccc(F)cc2)nn1",
    "Target": "454973-116-R2-J3-PDC complex spheroid viability",
    "Endpoint Label": "viability, T/C",
    "Reported Value": 113
  },
  {
    "Molecule": "O=C(Nc1ccc(O)c(NS(=O)(=O)c2ccc(F)cc2)c1)c1ccc(-c2ccccc2)cc1 + Cc1cccc(N(C)C(=O)C2C(O)CCN2c2nc(C)cc(C(F)(F)F)c2C#N)c1",
    "Target": "454973-116-R2-J3-PDC complex spheroid viability",
    "Endpoint Label": "viability, T/C",
    "Reported Value": 105
  },
  {
    "Molecule": "CCc1c2c(nc3ccc(O)cc13)-c1cc3c(c(=O)n1C2)COC(=O)[C@]3(O)CC + COC1C(OC(N)=O)C(O)C(Oc2ccc3c(O)c(NC(=O)c4ccc(O)c(CC=C(C)C)c4)c(=O)oc3c2C)OC1(C)C",
    "Target": "454973-116-R2-J3-PDC complex spheroid viability",
    "Endpoint Label": "viability, T/C",
    "Reported Value": 6.62
  },
  {
    "Molecule": "C=CCn1c(=O)c2cnc(Nc3ccc(N4CCN(C)CC4)cc3)nc2n1-c1cccc(C(C)(C)O)n1 + COC1C(OC(N)=O)C(O)C(Oc2ccc3c(O)c(NC(=O)c4ccc(O)c(CC=C(C)C)c4)c(=O)oc3c2C)OC1(C)C",
    "Target": "454973-116-R2-J3-PDC complex spheroid viability",
    "Endpoint Label": "viability, T/C",
    "Reported Value": 105
  },
  {
    "Molecule": "Cn1ncnc1[C@H]1c2n[nH]c(=O)c3cc(F)cc(c23)N[C@@H]1c1ccc(F)cc1 + COC1C(OC(N)=O)C(O)C(Oc2ccc3c(O)c(NC(=O)c4ccc(O)c(CC=C(C)C)c4)c(=O)oc3c2C)OC1(C)C",
    "Target": "454973-116-R2-J3-PDC complex spheroid viability",
    "Endpoint Label": "viability, T/C",
    "Reported Value": 78.1
  },
  {
    "Molecule": "CCCS(=O)(=O)Nc1ccc(F)c(C(=O)c2c[nH]c3ncc(-c4ccc(Cl)cc4)cc23)c1F + Cc1cccc(N(C)C(=O)C2C(O)CCN2c2nc(C)cc(C(F)(F)F)c2C#N)c1",
    "Target": "454973-116-R2-J3-PDC complex spheroid viability",
    "Endpoint Label": "viability, T/C",
    "Reported Value": 112
  },
  {
    "Molecule": "CCc1c2c(nc3ccc(O)cc13)-c1cc3c(c(=O)n1C2)COC(=O)[C@]3(O)CC + Cc1cccc(N(C)C(=O)C2C(O)CCN2c2nc(C)cc(C(F)(F)F)c2C#N)c1",
    "Target": "454973-116-R2-J3-PDC complex spheroid viability",
    "Endpoint Label": "viability, T/C",
    "Reported Value": 4.56
  },
  {
    "Molecule": "CC(C)n1c(=O)n(C)c2cnc3cc(F)c(-c4ccc(OCCCN5CCCCC5)nc4)cc3c21 + COC1C(OC(N)=O)C(O)C(Oc2ccc3c(O)c(NC(=O)c4ccc(O)c(CC=C(C)C)c4)c(=O)oc3c2C)OC1(C)C",
    "Target": "454973-116-R2-J3-PDC complex spheroid viability",
    "Endpoint Label": "viability, T/C",
    "Reported Value": 103
  }
]
